Biological target: Hormone-sensitive lipase (Rattus norvegicus, UniProt P15304)
Sequence (P15304 whole entry): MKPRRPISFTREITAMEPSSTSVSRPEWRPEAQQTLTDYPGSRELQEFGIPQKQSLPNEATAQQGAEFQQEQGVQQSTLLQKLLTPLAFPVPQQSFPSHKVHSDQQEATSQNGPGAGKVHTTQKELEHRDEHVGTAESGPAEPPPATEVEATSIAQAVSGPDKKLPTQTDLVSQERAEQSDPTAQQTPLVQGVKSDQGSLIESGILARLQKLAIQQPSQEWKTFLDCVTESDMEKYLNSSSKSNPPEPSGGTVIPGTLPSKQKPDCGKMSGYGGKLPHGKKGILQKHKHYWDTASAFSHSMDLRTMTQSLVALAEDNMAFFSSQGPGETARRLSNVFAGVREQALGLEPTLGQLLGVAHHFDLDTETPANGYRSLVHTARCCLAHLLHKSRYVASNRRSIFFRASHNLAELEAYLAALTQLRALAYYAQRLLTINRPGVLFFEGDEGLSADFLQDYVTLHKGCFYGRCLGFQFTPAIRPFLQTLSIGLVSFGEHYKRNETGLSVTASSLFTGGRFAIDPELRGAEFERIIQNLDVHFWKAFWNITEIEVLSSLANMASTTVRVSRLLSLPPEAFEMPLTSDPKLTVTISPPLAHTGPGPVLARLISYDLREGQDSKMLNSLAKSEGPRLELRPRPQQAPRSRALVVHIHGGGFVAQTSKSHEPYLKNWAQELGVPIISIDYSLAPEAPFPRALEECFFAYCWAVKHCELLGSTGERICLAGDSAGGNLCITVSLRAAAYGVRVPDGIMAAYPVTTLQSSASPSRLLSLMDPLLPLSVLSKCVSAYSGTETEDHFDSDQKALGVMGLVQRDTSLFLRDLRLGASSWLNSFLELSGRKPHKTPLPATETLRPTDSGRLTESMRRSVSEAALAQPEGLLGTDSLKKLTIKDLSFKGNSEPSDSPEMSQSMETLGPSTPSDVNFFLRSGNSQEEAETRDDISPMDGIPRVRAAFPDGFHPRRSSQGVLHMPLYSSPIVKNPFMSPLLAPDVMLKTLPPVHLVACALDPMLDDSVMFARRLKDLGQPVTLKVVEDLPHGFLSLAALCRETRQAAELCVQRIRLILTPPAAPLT
Assay: Inhibition of HSL in Wistar rat isolated fat cells by spectrophotometric assay
# Fulfilled = IC50 below 20 nM (exclusive); Not fulfilled = IC50 at/above 20 nM

molecule: COc1ccc(C(=O)c2ccccc2)c(O)c1
class_name: Not fulfilled

molecule: Cc1c(C(C)C)c(=O)on1C(=O)N1CC=CC1
class_name: Not fulfilled

molecule: Cc1c(C2CCCC2)c(=O)on1C(=O)N1CCC(c2ccccc2)CC1
class_name: Not fulfilled

molecule: CCc1c(C)n(C(=O)N2CCCCC2)oc1=O
class_name: Fulfilled

molecule: Cc1c(C2CCCC2)c(=O)on1C(=O)N1CCCCC1
class_name: Fulfilled

molecule: Cc1c(C2CCSCC2)c(=O)on1C(=O)N1CCC(C)CC1
class_name: Fulfilled

molecule: Cc1c(C(C)C)c(=O)on1C(=O)N1CCC(c2ccccc2)CC1
class_name: Fulfilled

molecule: CCOc1nn(-c2cccc(OCc3ccccc3)c2)c(=O)o1
class_name: Fulfilled

molecule: Cc1c(C(C)C)c(=O)on1C(=O)N1CCCC(CO)C1 (configuration not stated)
class_name: Not fulfilled

molecule: Cc1c(C(C)C)c(=O)on1C(=O)N(C)Cc1ccco1
class_name: Fulfilled

molecule: Cc1c(C2CCCCC2)c(=O)on1C(=O)N1CCC(C)CC1
class_name: Fulfilled

molecule: Cc1c(S(=O)(=O)c2ccc(Cl)cc2)c(=O)on1C(=O)N1CCCCC1
class_name: Not fulfilled

// data source = ChEMBL document CHEMBL1140143
